# target-system: Heat shock protein HSP90 (Homo sapiens) (UniProt P07900+P08238)
# experimental-protocol: Induction of HSP90-mediated HSF1 expression in human PC3MM2 cells at 10 uM after 24 hrs by Western blot analysis
# Assay type: cell-based
measurement-name: fold change (FC)

P. CO[C@@H]1[C@@H](O)[C@@H](O)[C@H](Oc2ccc3cc(NC(=O)C4CC4)c(=O)oc3c2C)OC1(C)C
Q. CCC(=O)Nc1cc2ccc(O[C@@H]3OC(C)(C)[C@H](OC)[C@@H](O)[C@H]3O)c(C)c2oc1=O
R. CCCCCCC(=O)Nc1cc2ccc(O[C@@H]3OC(C)(C)[C@H](OC)[C@@H](O)[C@H]3O)c(C)c2oc1=O
S. CO[C@@H]1[C@@H](O)[C@@H](O)[C@H](Oc2ccc3cc(NC(=O)C4CCCC4)c(=O)oc3c2C)OC1(C)C
Order the entries above by descending fold change (FC). Reply: labels, ordered per the request. P, S, Q, R
(P: 3.7, S: 2, Q: 1.2, R: 0.6)

###

# target-system: Heat shock protein HSP90 (Homo sapiens) (UniProt P07900+P08238)
# experimental-protocol: Inhibition of Hsp90 in human PC3MM2 cells assessed as suppression of firefly luciferase rematuration at 0.02 to 20 uM incubated for 1 hr by luciferase reporter gene assay
# Type: cell-based
Active and inactive are the calls of the source. The calls are words filed in the database; no cut-off is given here.
The categories you may choose from are active, inactive

The following compounds have reported results that may help.
mol-smiles: CCCC(=O)Nc1cc2ccc(O[C@@H]3OC(C)(C)[C@H](OC)[C@@H](O)[C@H]3O)c(C)c2oc1=O
target-system: Heat shock protein HSP90 (Homo sapiens) (UniProt P07900+P08238)
assigned-class: inactive
--
mol-smiles: CCC(=O)Nc1cc2ccc(O[C@@H]3OC(C)(C)[C@H](OC)[C@@H](O)[C@H]3O)c(C)c2oc1=O
target-system: Heat shock protein HSP90 (Homo sapiens) (UniProt P07900+P08238)
assigned-class: inactive
--
mol-smiles: CO[C@@H]1[C@@H](O)[C@@H](O)[C@H](Oc2ccc3cc(NC(C)=O)c(=O)oc3c2C)OC1(C)C
target-system: Heat shock protein HSP90 (Homo sapiens) (UniProt P07900+P08238)
assigned-class: inactive
--
mol-smiles: CO[C@@H]1[C@@H](O)[C@@H](O)[C@H](Oc2ccc3cc(NC(=O)C4CCCC4)c(=O)oc3c2C)OC1(C)C
target-system: Heat shock protein HSP90 (Homo sapiens) (UniProt P07900+P08238)
assigned-class: active
--
mol-smiles: CCCCCCC(=O)Nc1cc2ccc(O[C@@H]3OC(C)(C)[C@H](OC)[C@@H](O)[C@H]3O)c(C)c2oc1=O
target-system: Heat shock protein HSP90 (Homo sapiens) (UniProt P07900+P08238)
assigned-class: active
--
mol-smiles: CO[C@@H]1[C@@H](O)[C@@H](O)[C@H](Oc2ccc3cc(NC(=O)C4CCCCC4)c(=O)oc3c2C)OC1(C)C
target-system: Heat shock protein HSP90 (Homo sapiens) (UniProt P07900+P08238)
assigned-class: active
--
mol-smiles: CCCCCC(=O)Nc1cc2ccc(O[C@@H]3OC(C)(C)[C@H](OC)[C@@H](O)[C@H]3O)c(C)c2oc1=O
target-system: Heat shock protein HSP90 (Homo sapiens) (UniProt P07900+P08238)
assigned-class: active

In this assay, the call recorded for CCCCC(=O)Nc1cc2ccc(O[C@@H]3OC(C)(C)[C@H](OC)[C@@H](O)[C@H]3O)c(C)c2oc1=O was what? inactive

###

Form field: remaining Hsp90alpha/Aha1 complex level (one value per entry).
# Organism: Homo sapiens
# experimental-protocol: Inhibition of Hsp90alpha/Aha1 interaction in human PC3MM2 cells assessed as remaining Hsp90alpha/Aha complex levels at 100 uM after 24 hrs by Western blot analysis (reference value: 98 to 100 %)
# Assay type: cell-based
Numbers only; they are read as %.

mol-smiles: CO[C@@H]1[C@@H](O)[C@@H](O)[C@H](Oc2ccc3cc(NC(=O)C4CCCC4)c(=O)oc3c2C)OC1(C)C
unit-symbol: %
remaining Hsp90alpha/Aha1 complex level: 27

Consider now this further compound.
Record CO[C@@H]1[C@@H](O)[C@@H](O)[C@H](Oc2ccc3cc(NC(=O)C4CCC4)c(=O)oc3c2C)OC1(C)C , field remaining Hsp90alpha/Aha1 complex level: 54

###

# target-system: Heat shock protein HSP90 (Homo sapiens) (UniProt P07900+P08238)
# experimental-protocol: Induction of HSP90-mediated HSF1 expression in human PC3MM2 cells at 10 uM after 24 hrs by Western blot analysis
# Type: cell-based
measurement-name: fold change (FC)

Worked examples follow.
mol-smiles: CO[C@@H]1[C@@H](O)[C@@H](O)[C@H](Oc2ccc3cc(NC(=O)C4CCCCC4)c(=O)oc3c2C)OC1(C)C
target-system: Heat shock protein HSP90 (Homo sapiens) (UniProt P07900+P08238)
measurement-name: fold change (FC)
readout-value: 1

mol-smiles: CCCCCC(=O)Nc1cc2ccc(O[C@@H]3OC(C)(C)[C@H](OC)[C@@H](O)[C@H]3O)c(C)c2oc1=O
target-system: Heat shock protein HSP90 (Homo sapiens) (UniProt P07900+P08238)
measurement-name: fold change (FC)
readout-value: 0.6

mol-smiles: CCCC(=O)Nc1cc2ccc(O[C@@H]3OC(C)(C)[C@H](OC)[C@@H](O)[C@H]3O)c(C)c2oc1=O
target-system: Heat shock protein HSP90 (Homo sapiens) (UniProt P07900+P08238)
measurement-name: fold change (FC)
readout-value: 1.1

P. CO[C@@H]1[C@@H](O)[C@@H](O)[C@H](Oc2ccc3cc(NC(=O)C4CCC4)c(=O)oc3c2C)OC1(C)C
Q. CCCCC(=O)Nc1cc2ccc(O[C@@H]3OC(C)(C)[C@H](OC)[C@@H](O)[C@H]3O)c(C)c2oc1=O
Please tell me which of the two, P or Q , has the higher reported fold change (FC) value. I would appreciate it if you answered with the label of your choice. P
